measured.on: Nitric oxide synthase, inducible (Homo sapiens, UniProt P35228)
Sequence (P35228 whole entry): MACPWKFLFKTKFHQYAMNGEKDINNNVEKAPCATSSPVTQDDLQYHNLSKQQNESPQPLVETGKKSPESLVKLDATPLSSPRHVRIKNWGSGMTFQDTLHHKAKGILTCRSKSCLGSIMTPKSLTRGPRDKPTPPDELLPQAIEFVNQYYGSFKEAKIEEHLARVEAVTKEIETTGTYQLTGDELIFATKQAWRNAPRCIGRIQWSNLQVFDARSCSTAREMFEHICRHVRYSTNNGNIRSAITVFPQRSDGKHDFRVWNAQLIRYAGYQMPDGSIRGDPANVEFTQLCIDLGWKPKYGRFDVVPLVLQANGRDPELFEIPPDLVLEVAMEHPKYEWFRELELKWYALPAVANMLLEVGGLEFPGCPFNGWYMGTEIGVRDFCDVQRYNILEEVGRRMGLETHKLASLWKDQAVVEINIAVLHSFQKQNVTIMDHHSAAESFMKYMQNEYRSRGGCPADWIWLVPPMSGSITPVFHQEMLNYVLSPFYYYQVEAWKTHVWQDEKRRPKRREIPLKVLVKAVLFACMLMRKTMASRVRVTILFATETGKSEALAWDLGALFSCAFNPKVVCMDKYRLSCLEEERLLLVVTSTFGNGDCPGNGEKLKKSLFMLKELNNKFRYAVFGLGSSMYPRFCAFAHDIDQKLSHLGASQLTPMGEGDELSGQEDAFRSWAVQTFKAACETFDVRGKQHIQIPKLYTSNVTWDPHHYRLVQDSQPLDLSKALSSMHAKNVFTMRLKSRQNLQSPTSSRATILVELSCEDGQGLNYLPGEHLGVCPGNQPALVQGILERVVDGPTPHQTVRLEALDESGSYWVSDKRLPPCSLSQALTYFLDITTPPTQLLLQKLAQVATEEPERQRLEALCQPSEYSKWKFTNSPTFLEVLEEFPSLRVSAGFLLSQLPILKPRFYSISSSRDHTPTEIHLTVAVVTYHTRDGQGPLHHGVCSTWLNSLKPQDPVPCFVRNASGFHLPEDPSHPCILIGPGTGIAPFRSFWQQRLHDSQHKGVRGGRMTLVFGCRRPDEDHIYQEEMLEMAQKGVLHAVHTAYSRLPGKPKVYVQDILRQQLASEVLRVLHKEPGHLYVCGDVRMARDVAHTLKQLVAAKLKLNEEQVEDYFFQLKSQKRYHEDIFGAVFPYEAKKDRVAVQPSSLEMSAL
method.description: Inhibition of cytokine-induced iNOS activity in human DLD1 cells at 10 uM after 24 hrs
Type: cell-based
condition.summary: DLD-1
Recorded inhibition for the following molecules

{"molecule": "CN(Cc1cc(Cl)ccc1C#N)C1CCCNCC1 (centres undefined)", "cmp": "=", "inhibition, %": 31}
{"molecule": "CN1CCC(N(C)Cc2cc([N+](=O)[O-])ccc2Cl)CC1", "cmp": "<", "inhibition, %": 15}
{"molecule": "COc1ccc(C#N)c(CN(C)C2CCN(C)CC2)c1", "cmp": "<", "inhibition, %": 15}
{"molecule": "CN1CCC(N(C)Cc2cc(Cl)ccc2Br)CC1", "cmp": "=", "inhibition, %": 51}
{"molecule": "CC(=N)NCCSCC[C@H](N)C(=O)O", "cmp": "=", "inhibition, %": 26}
{"molecule": "CN(Cc1cc(Cl)ccc1C#N)C1CCNC1 (centres undefined)", "cmp": "=", "inhibition, %": 33}
{"molecule": "CN1CCC(N(C)Cc2ccccc2)CC1", "cmp": "<", "inhibition, %": 15}
{"molecule": "CN1CCC(N(C)Cc2cc(Cl)ccc2C(F)(F)F)CC1", "cmp": "=", "inhibition, %": 48}
{"molecule": "CN1CCC(N(C)Cc2ccccc2[N+](=O)[O-])CC1", "cmp": "<", "inhibition, %": 15}

* * *

measured.on: UniProtKB P29474
Sequence (P29474 whole entry): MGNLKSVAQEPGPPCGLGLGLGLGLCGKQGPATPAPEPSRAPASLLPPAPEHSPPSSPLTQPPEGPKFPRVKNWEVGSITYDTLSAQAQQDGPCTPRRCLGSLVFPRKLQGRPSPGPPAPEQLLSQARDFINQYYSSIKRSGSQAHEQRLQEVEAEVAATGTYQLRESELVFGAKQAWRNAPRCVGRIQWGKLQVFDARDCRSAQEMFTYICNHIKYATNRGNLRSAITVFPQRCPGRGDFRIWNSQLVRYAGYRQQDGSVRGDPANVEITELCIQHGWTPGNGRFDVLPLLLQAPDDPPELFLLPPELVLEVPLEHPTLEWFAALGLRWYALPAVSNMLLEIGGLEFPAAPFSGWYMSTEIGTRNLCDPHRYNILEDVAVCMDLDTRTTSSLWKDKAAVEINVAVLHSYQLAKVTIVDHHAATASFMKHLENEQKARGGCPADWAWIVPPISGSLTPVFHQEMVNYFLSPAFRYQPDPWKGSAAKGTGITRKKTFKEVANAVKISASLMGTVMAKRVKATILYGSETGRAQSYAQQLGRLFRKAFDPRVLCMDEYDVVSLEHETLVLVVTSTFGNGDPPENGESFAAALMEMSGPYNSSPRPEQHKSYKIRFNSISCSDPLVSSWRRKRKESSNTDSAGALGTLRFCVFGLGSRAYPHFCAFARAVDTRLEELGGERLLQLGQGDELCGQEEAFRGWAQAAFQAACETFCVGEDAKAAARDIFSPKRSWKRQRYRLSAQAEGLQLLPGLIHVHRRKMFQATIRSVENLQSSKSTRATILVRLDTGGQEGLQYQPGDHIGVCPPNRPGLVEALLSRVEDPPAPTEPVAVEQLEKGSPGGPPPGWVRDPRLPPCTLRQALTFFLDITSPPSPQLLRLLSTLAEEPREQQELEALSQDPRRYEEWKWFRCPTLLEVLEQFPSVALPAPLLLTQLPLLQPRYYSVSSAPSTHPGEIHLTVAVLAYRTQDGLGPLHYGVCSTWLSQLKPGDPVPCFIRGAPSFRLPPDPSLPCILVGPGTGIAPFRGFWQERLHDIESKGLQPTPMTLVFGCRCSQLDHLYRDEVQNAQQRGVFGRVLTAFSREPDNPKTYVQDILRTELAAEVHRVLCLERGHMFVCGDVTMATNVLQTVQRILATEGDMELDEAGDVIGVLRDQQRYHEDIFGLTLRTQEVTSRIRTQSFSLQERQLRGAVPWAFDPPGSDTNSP
Lab note: cut-off is 2 µM. Strictly less in IC50 is satisfied. Exactly 2 µM or more is not satisfied.

{"compound": "CCN1CCC(N(C)Cc2cc(Cl)ccc2C#N)CC1", "group": "satisfied"}
{"compound": "CCN(Cc1cc(Cl)ccc1C#N)C1CCNCC1", "group": "satisfied"}
{"compound": "CN(Cc1cc(Cl)ccc1C#N)C1CCCNC1 (centres undefined)", "group": "satisfied"}
{"compound": "N#Cc1ccc(Cl)cc1CN(CC1CC1)C1CCNCC1", "group": "not satisfied"}
{"compound": "CN1CCC(N(C)Cc2cc(Br)ccc2C#N)CC1", "group": "satisfied"}
{"compound": "CN1CCC(N(C)Cc2cc(Cl)ccc2C#N)CC1", "group": "satisfied"}
{"compound": "CN(Cc1cc(Cl)ccc1C#N)C1CCNC1 (centres undefined)", "group": "not satisfied"}
{"compound": "CN1CCC(N(C)Cc2cc(Cl)ccc2[N+](=O)[O-])CC1", "group": "satisfied"}
{"compound": "CC(=N)NCCCC[C@H](N)C(=O)O [L-NIL]", "group": "not satisfied"}
